Ref: PubChem BioAssay (NCI)

Tested on: SN12C renal
Assay: NCI-60 one-dose screen, 48 h (100 = growth as untreated, 0 = no growth, -100 = all killed)
Settings: 10 µM unless noted
This is part of a sample that, as a whole, favours compounds with a hit. Of some 83,000 tested, about 20% had one in any assay.
Please note: true (1) applies when growth is 30% or greater, and false (0) applies otherwise.

Q. Reported growth reaches at least 30% for `CO[C@H]1C[C@@H]2CC[C@@H](C)[C@@](O)(O2)C(=O)C(=O)N2CCCC[C@H]2C(=O)O[C@H]([C@H](C)C[C@@H]2CC[C@@H](OCCO)[C@H](OC)C2)CC(=O)[C@H](C)/C=C(\C)[C@@H](O)[C@H](OC)C(=O)[C@H](C)C[C@H](C)\C=C/C=C/C=C/1C` ?
A. true (1)

Q. Reported growth reaches at least 30% for `CSC1=C(N)C(=O)c2[nH]cc(CO)c2C1=N` ?
A. false (0)

Q. Reported growth reaches at least 30% for `Cc1cn(-c2cc(NC(=O)c3ccc(C)c(Nc4nccc(-c5cccnc5)n4)c3)cc(C(F)(F)F)c2)cn1` ?
A. true (1)

Q. Reported growth reaches at least 30% for `CCc1nc2ccc(Cc3ccc(C(=O)NO)cc3)cc2c(=O)n1CCc1ccccc1` ?
A. false (0)

Q. Reported growth reaches at least 30% for `CCCCCCCC(=O)SCC/C=C/[C@@H]1CC(=O)NCc2cc(ccn2)C2=N[C@@](C)(CS2)C(=O)N[C@@H](C(C)C)C(=O)O1` ?
A. false (0)

Q. Reported growth reaches at least 30% for `CN1CCN(c2nc(NCCNc3ccnc4cc(Cl)ccc34)c3ccccc3n2)CC1` ?
A. false (0)

More entries:
Q. Reported growth reaches at least 30% for `C[C@@H]1COC(Nc2ccc3ncnc(Nc4ccc(OCc5nccs5)c(Cl)c4)c3c2)=N1` ?
A. true (1)
